Source: patent US20250313563A1

- TGT: GSK3b (GST-full length GSK3b) (Homo sapiens (Human))
- Sequence (P49841 whole entry): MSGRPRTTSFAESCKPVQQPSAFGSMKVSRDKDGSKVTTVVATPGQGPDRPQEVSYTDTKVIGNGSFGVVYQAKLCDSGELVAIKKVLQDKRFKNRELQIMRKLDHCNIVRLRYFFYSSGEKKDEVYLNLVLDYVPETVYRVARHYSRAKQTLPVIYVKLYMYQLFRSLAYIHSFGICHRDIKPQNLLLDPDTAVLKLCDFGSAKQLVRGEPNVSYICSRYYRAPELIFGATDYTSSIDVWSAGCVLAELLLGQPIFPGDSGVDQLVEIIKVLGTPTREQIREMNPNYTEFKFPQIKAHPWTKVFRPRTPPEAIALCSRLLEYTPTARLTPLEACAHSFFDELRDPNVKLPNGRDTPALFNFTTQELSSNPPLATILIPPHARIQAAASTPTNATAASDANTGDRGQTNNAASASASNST
- METHOD_DESCRIPTION: GSK3b TR-FRET kinase assay
- Type: biochemical
- PARTICULARS: read-out: GSK3-B (TR-FRET 1 mM ATP); GMean; IC50; 1 mM ATP; geometric mean
pIC50: −log10 of the molar value.
Provide the recorded pIC50 for the entries that follow.

Prompt: Quick one: pIC50 of `CC[C@]1(c2cccc(-c3ccnnc3)c2)C2=C(CC(C)(C)CC2=O)Nc2n[nH]cc21` ?
Completion: 5.30 to 6.00

Prompt: Sample `CC[C@]1(c2cccc(-c3ccnc(C)c3OC)c2)C2=C(CC(C)(C)CC2=O)Nc2n[nH]cc21` — what was its pIC50?
Completion: 5.30 to 6.00

Prompt: # pIC50 lookup, item CCC1(c2cccc(-c3c(F)cncc3OC)c2)C2=C(Nc3n[nH]cc31)C(F)C(C)(C)CC2=O (stereo not drawn) [Compound 948545]
Completion: 6.00 to 7.00

Prompt: Which measured pIC50 value corresponds to CCC1(c2cccc(N(C)c3ncccn3)c2)C2=C(CC(C)(C)NC2=O)Nc2n[nH]c(C(F)(F)F)c21 (stereo not drawn) ?
Completion: 6.00 to 7.00

Prompt: What measured pIC50 goes with CCC1(c2cccc(-c3ccncc3C)c2)C2=C(CC(C)(C)NC2=O)Nc2n[nH]c(C(F)(F)F)c21 (stereo not drawn) [Compound 947814] ?
Completion: ≥ 7.00

Prompt: Which pIC50 value is on record for CCC1(c2cccc(Oc3ncccn3)c2)C2=C(CC(C)(C)CC2=O)Nc2n[nH]cc21 (stereo not drawn) ?
Completion: 6.00 to 7.00

Prompt: So what does the record say about pIC50 for `CC[C@]1(c2cccc(-c3ccnc(C)c3)c2)C2=C(C[C@]3(CCOC3)NC2=O)Nc2n[nH]cc21` ?
Completion: < 5.30

Prompt: # pIC50 lookup, item CCC1(c2cccc(-c3cnn(C)c3)c2)C2=C(CC(C)(C)NC2=O)Nc2n[nH]c(C)c21 (stereo not drawn)
Completion: 5.30 to 6.00

Prompt: # query: pIC50 of entry CCC1(c2cccc(-c3cnn(C)c3C)c2)C2=C(CC(C)(C)NC2=O)Nc2n[nH]c(C(F)(F)F)c21 (stereo not drawn)
Completion: 6.00 to 7.00

Prompt: Recorded pIC50 for `CC[C@@]1(c2cccc(-c3cnc(C)n3C)c2)C2=C(CC(C)(C)CC2=O)Nc2n[nH]cc21` , please?
Completion: 5.30 to 6.00

Prompt: What does the record list as pIC50 for CCC1(c2cccc(-c3ccnc(C(F)(F)F)c3)c2)C2=C(CC(C)(C)CC2=O)Nc2n[nH]cc21 (stereo not drawn) ?
Completion: 6.00 to 7.00

Prompt: Which measured pIC50 value corresponds to CCC1(c2cccc(N(c3cccnc3)C(C)C)c2)C2=C(CC(C)(C)CC2=O)Nc2n[nH]cc21 (stereo not drawn) ?
Completion: 5.30 to 6.00

Prompt: pIC50 for CCC1(c2cc(-c3ccncc3)ccc2C)C2=C(CC(C)(C)CC2=O)Nc2n[nH]cc21 (stereo not drawn) ?
Completion: < 5.30

Prompt: Reported pIC50 for CCC1(c2cccc(OCC(F)F)c2)C2=C(CC(C)(C)CC2=O)Nc2n[nH]cc21 (stereo not drawn) : what is it?
Completion: < 5.30

Prompt: Given CCC1(c2cccc(-c3cn(C)nc3C)c2)C2=C(CC(C)(C)NC2=O)Nc2n[nH]c(Cl)c21 (stereo not drawn) , state its recorded pIC50.
Completion: 6.00 to 7.00

---

Give measured IC50 for each item. Keep answers brief.
- TGT: UniProtKB P49840
- METHOD_DESCRIPTION: GSK3α TR-FRET kinase assay
- Format: biochemical
- PARTICULARS: 1 nM GSK3α, 4 μM ATP, 30 minute preincubation, Table 16; read-out: GSK3-A TR-FRET BIOCHEMICAL (TR-FRET); IC50

Prompt: Requested read-out IC50, target or system UniProtKB P49840, entry CCC1(c2cccc(-c3cnn(CCN4CCCC4)c3)c2)C2=C(CC(C)(C)NC2=O)Nc2n[nH]cc21 (stereo not shown)
Completion: 100 to 1000 nM

Prompt: What reported IC50 corresponds to `CC[C@]1(c2cccc(-c3cn(C)nc3C)c2)C2=C(CC(C)(C)NC2=O)Nc2n[nH]c(Cl)c21` on UniProtKB P49840?
Completion: 1000 to 5000 nM

Prompt: Recall the recorded IC50 for `CC[C@@]1(c2cccc(-c3c(F)cncc3OC)c2)C2=C(CC(C)(C)C2=O)Nc2n[nH]cc21` with UniProtKB P49840 and state it.
Completion: ≤ 100 nM

Prompt: Which measured IC50 belongs to `CC1(C)CC(=O)C2=C(C1)Nc1n[nH]cc1C21CS(=O)(=O)C1` , tested on UniProtKB P49840?
Completion: 1000 to 5000 nM

Prompt: Form field: IC50 recorded for `CC[C@@]1(c2cccc(-c3cnn(Cc4ccc(C(F)(F)F)cc4)c3)c2)C2=C(CC(C)(C)NC2=O)Nc2n[nH]cc21` with UniProtKB P49840 (enter value)
Completion: > 5000 nM

Prompt: Recorded IC50 for CCC1(c2cccc(-c3cnn(C4CC4(F)F)c3)c2)C2=C(CC(C)(C)NC2=O)Nc2n[nH]cc21 (stereo not shown) with UniProtKB P49840, please?
Completion: 1000 to 5000 nM

Prompt: State its IC50 on UniProtKB P49840: CCC1(c2cccc(-c3cn(C)nc3C(F)(F)F)c2)C2=C(CC(C)(C)NC2=O)Nc2n[nH]cc21 (stereo not shown)
Completion: ≤ 100 nM

---

Give measured pIC50 for each item. Keep answers brief.
- TGT: GSK3α (GST-full length GSK3α) (Homo sapiens (Human), UniProt P49840)
- Sequence (P49840 whole entry): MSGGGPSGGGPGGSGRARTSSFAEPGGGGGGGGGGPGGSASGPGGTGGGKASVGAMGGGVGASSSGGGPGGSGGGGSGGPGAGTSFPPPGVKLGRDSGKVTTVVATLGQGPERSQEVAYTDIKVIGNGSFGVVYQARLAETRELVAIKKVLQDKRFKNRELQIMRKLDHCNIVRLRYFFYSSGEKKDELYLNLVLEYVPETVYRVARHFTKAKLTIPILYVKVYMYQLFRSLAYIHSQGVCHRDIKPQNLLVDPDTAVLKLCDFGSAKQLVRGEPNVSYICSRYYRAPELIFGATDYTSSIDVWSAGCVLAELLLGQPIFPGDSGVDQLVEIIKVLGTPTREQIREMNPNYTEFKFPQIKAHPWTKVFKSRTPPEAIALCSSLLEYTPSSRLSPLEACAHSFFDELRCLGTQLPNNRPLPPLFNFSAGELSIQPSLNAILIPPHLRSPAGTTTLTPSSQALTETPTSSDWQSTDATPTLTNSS
- METHOD_DESCRIPTION: GSK3α TR-FRET kinase assay
- Format: biochemical
- PARTICULARS: read-out: GSK3-A (TR-FRET 1 mM ATP); GMean; IC50; 1 mM ATP; geometric mean
pIC50: −log10 of the molar value.

Prompt: Form field: reported pIC50 of CCC1(c2cccc(-c3ccnc(C)c3)c2)C2=C(CC(C)(C)NC2=O)Nc2n[nH]cc21 (stereo not drawn) [Compound 927325]
Completion: 6.00 to 7.00

Prompt: What value of pIC50 has been reported for the following compound? CCC1(c2cccc(-c3ccncc3)c2)C2=C(CC(C)(C)CC2=O)Nc2n[nH]cc21 (stereo not drawn) [Compound 801413]
Completion: 6.00 to 7.00

Prompt: Data request, read-out pIC50, for CC[C@@]1(c2cccc(-c3cn(C)nc3C)c2)C2=C(CC(C)(C)NC2=O)Nc2n[nH]c(F)c21 [Compound 949185]
Completion: ≥ 7.00

Prompt: Sample CC[C@]1(c2cccc(-c3c(C)nn(C)c3C)c2)C2=C(CC(C)(C)CC2=O)Nc2n[nH]c(C)c21 [Compound 913043] — what was its pIC50?
Completion: ≥ 7.00

Prompt: Quick one: pIC50 for CC(C)(C)Cc1[nH]nc2c1C(C)(c1cc(S(C)(=O)=O)ccc1F)C1=C(CC(C)(C)CC1=O)N2 (stereo not drawn) [Compound 125976] ?
Completion: 5.30 to 6.00

Prompt: Which pIC50 value is on record for CCC1(c2cccc(-c3cnn4c3CCCC4)c2)C2=C(CC(C)(C)CC2=O)Nc2n[nH]c(C)c21 (stereo not drawn) [Compound 913036] ?
Completion: ≥ 7.00

Prompt: Give its pIC50 value. Item: CCC1(c2cccc(-c3ccnc(C)c3C)c2)C2=C(CC(C)(C)CC2=O)Nc2n[nH]cc21 (stereo not drawn) [Compound 943516]
Completion: ≥ 7.00

Prompt: Given the compound CCC1(c2cccc(-c3cnn4c3CCCC4)c2)C2=C(CC(C)(C)CC2=O)Nc2n[nH]cc21 (stereo not drawn) [Compound 945543] , what is its reported pIC50?
Completion: 6.00 to 7.00

Prompt: Please report the recorded pIC50 for CCC1(c2cccc(-c3cnnc(C)c3)c2)C2=C(CC(C)(C)CC2=O)Nc2n[nH]cc21 (stereo not drawn) [Compound 943994] .
Completion: 6.00 to 7.00

Prompt: For the compound CCC1(c2cccc(-c3ccncc3)c2)C2=C(CC(C)(C)CC2=O)Nc2n[nH]c(C(F)(F)F)c21 (stereo not drawn) [Compound 917292] , what pIC50 is on record?
Completion: < 5.30

Prompt: Given the compound CC[C@]1(c2cccc(N3CCCC3)c2)C2=C(CC(C)(C)CC2=O)Nc2n[nH]c(C(F)(F)F)c21 [Compound 819574] , what is its reported pIC50?
Completion: ≥ 7.00

Prompt: Would you kindly share the measured pIC50 for CCC1(c2cccc(-c3cc(C)nn3C)c2)C2=C(CC(C)(C)CC2=O)Nc2n[nH]c(C(F)(F)F)c21 (stereo not drawn) [Compound 945532] ?
Completion: ≥ 7.00

Prompt: // returns reported pIC50 for input CCCS(=O)(=O)c1cccc(C2(CC)C3=C(CC(C)(C)CC3=O)Nc3n[nH]cc32)c1 (stereo not drawn) [Compound 929447]
Completion: ≥ 7.00

Prompt: So what does the record say about pIC50 for CCC1(c2cccc(-c3cnn(-c4ccccn4)c3)c2)C2=C(CC(C)(C)NC2=O)Nc2n[nH]cc21 (stereo not drawn) [Compound 952566] ?
Completion: < 5.30

Prompt: # query: pIC50 of entry CC[C@]1(c2cccc(-c3cn(C)nc3C)c2)C2=C(CC(C)(C)CC2=O)Nc2n[nH]c(C)c21 [Compound 913035]
Completion: ≥ 7.00
